test: In vitro release of conjugates in phosphate buffer (Method E); format: physicochemical; conditions: phosphate buffer pH 6.8, 37° C.; read-out: Release half-life, Phosphate pH 6.8
readout.label: half-life

Req: // fetch half-life given entry CCN(CC)CCN(C(=O)OCC(O)CO)C(=O)c1c(C)[nH]c(/C=C2\C(=O)Nc3ccc(F)cc32)c1C (stereo not shown)
Resp: ~10 min

* * *

assay: In vitro release of conjugates in phosphate buffer (Method E); type: physicochemical; conditions: 100 mM phosphate buffer pH 7.5, 37° C.; read-out: Release half-life, Phosphate pH 7.5
readout.label: half-life

Req: Return value of half-life for input CCN(CC)CCN(C(=O)OCC(O)CO)C(=O)c1c(C)[nH]c(/C=C2\C(=O)Nc3ccc(F)cc32)c1C (stereo not shown) , no commentary.
Resp: ~3 min
